Consider the following molecules; for each one, report its pIC50.
Test system: 485176-168-R4-J1-PDC complex spheroid growth;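 further: spheroids exposed to compounds for seven days before readout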
Assay: Anticancer human tumor 485176-168-R4-J1-PDC patient-derived pancreatic adenocarcinoma cell line growth inhibition [RAS]
Conditions: curve of first compound; second compound 0.00949 µM
Schema: pIC50 number; meaning minus log10 of the concentration expressed in molar units.

State its pIC50 on 485176-168-R4-J1-PDC complex spheroid growth: CCc1c2c(nc3ccc(O)cc13)-c1cc3c(c(=O)n1C2)COC(=O)[C@]3(O)CC + CCn1c(-c2cc(N3CCN(C)CC3)cnc2C(C)OC)c2c3cc(ccc31)-c1csc(n1)CC(NC(=O)C1CC1C)C(=O)N1CCCC(N1)C(=O)OCC(C)(C)C2
7.94

State its pIC50 on 485176-168-R4-J1-PDC complex spheroid growth: O=C(c1ccc(F)c(F)c1Nc1ccc(I)cc1F)N1CC(O)([C@@H]2CCCCN2)C1 + CCn1c(-c2cccnc2C(C)OC)c2c3cc(ccc31)N1CCOC(CC(NC(=O)C(C(C)C)N(C)C(=O)C3(F)CCN(C(=O)C#CC(C)(C)N(C)C)CC3)C(=O)N3CCCC(N3)C(=O)OCC(C)(C)C2)C1
6.81

State its pIC50 on 485176-168-R4-J1-PDC complex spheroid growth: CC(C)NCC(C(=O)N1CCN(c2ncnc3c2C(C)CC3O)CC1)c1ccc(Cl)cc1 (stereo not given) + CCn1c(-c2cccnc2C(C)OC)c2c3cc(ccc31)N1CCOC(CC(NC(=O)C(C(C)C)N(C)C(=O)C3(F)CCN(C(=O)C#CC(C)(C)N(C)C)CC3)C(=O)N3CCCC(N3)C(=O)OCC(C)(C)C2)C1
5.90

State its pIC50 on 485176-168-R4-J1-PDC complex spheroid growth: Nc1ccn(C2OC(CO)C(O)C2(F)F)c(=O)n1 (stereo not given) + CCn1c(-c2cc(N3CCN(C)CC3)cnc2C(C)OC)c2c3cc(ccc31)-c1csc(n1)CC(NC(=O)C1CC1C)C(=O)N1CCCC(N1)C(=O)OCC(C)(C)C2
7.74

State its pIC50 on 485176-168-R4-J1-PDC complex spheroid growth: CCc1c2c(nc3ccc(O)cc13)-c1cc3c(c(=O)n1C2)COC(=O)[C@]3(O)CC + CCn1c(-c2cccnc2C(C)OC)c2c3cc(ccc31)N1CCOC(CC(NC(=O)C(C(C)C)N(C)C(=O)C3(F)CCN(C(=O)C#CC(C)(C)N(C)C)CC3)C(=O)N3CCCC(N3)C(=O)OCC(C)(C)C2)C1
7.82

State its pIC50 on 485176-168-R4-J1-PDC complex spheroid growth: CC(C)n1nc(-c2ccc3oc(N)nc3c2)c2c(N)ncnc21 + CCn1c(-c2cccnc2C(C)OC)c2c3cc(ccc31)N1CCOC(CC(NC(=O)C(C(C)C)N(C)C(=O)C3(F)CCN(C(=O)C#CC(C)(C)N(C)C)CC3)C(=O)N3CCCC(N3)C(=O)OCC(C)(C)C2)C1
7.67

State its pIC50 on 485176-168-R4-J1-PDC complex spheroid growth: Nc1ccn(C2OC(CO)C(O)C2(F)F)c(=O)n1 (stereo not given) + CCn1c(-c2cccnc2C(C)OC)c2c3cc(ccc31)N1CCOC(CC(NC(=O)C(C(C)C)N(C)C(=O)C3(F)CCN(C(=O)C#CC(C)(C)N(C)C)CC3)C(=O)N3CCCC(N3)C(=O)OCC(C)(C)C2)C1
7.81

State its pIC50 on 485176-168-R4-J1-PDC complex spheroid growth: CCC(CC)c1cc(NC2CCC(N)C2)n2nccc2n1 (stereo not given) + CCn1c(-c2cc(N3CCN(C)CC3)cnc2C(C)OC)c2c3cc(ccc31)-c1csc(n1)CC(NC(=O)C1CC1C)C(=O)N1CCCC(N1)C(=O)OCC(C)(C)C2
5.97

State its pIC50 on 485176-168-R4-J1-PDC complex spheroid growth: CCN1CCN(Cc2ccc(Nc3ncc(F)c(-c4cc(F)c5nc(C)n(C(C)C)c5c4)n3)nc2)CC1 + CCn1c(-c2cc(N3CCN(C)CC3)cnc2C(C)OC)c2c3cc(ccc31)-c1csc(n1)CC(NC(=O)C1CC1C)C(=O)N1CCCC(N1)C(=O)OCC(C)(C)C2
6.12
